Every entry's value here was drawn from the supplement of paper PMC12494721.

Test system: Escherichia coli IAI1
Assay Method Text: growth (OD595) fold change vs plate DMSO controls (fold change (ratio)); higher = more growth
Cond: incubation time: 27 h, anaerobic, 37 °C
Where a name gives a salt, the structure may show the parent alone.

Molecule	growth
c1ccc(-c2ccc(C(c3ccccc3)n3ccnc3)cc2)cc1 (stereo unspecified) [Bifonazole] (20 µM)	1.08
CC(C)(C)NCC(O)c1ccc(O)c(CO)c1 (stereo unspecified) [Salbutamol] (20 µM)	0.99
Cc1cc(/C=C/c2ccc3cc(N(C)C)ccc3[n+]2C)c(C)n1-c1ccccc1 [Pyrvinium pamoate] (20 µM)	1.12
CN1[C@@H]2CC[C@H]1C[C@@H](OC(=O)c1c[nH]c3ccccc13)C2 [Tropisetron hydrochloride] (20 µM)	1
CCCCCN(CCCCC)C(=O)C(CCC(=O)O)NC(=O)c1ccc(Cl)c(Cl)c1 (stereo unspecified) [Lorglumide sodium salt] (20 µM)	1.02
CC(C(=O)O)c1ccc(N2CC=CC2)c(Cl)c1 (stereo unspecified) [Pirprofen] (20 µM)	1.01
Cc1cn[nH]c1 [Fomepizole] (20 µM)	0.987
NC(=O)C(c1ccccc1)(c1ccccc1)[C@@H]1CCN(CCc2ccc3c(c2)CCO3)C1 [Darifenacin hydrobromide] (20 µM)	0.975
Cc1cc(NS(=O)(=O)c2ccc(N)cc2)nc(C)n1 [Sulfisomidine] (20 µM)	1.07
CC(C)c1ccc2oc3nc(N)c(C(=O)O)cc3c(=O)c2c1 [Amlexanox] (20 µM)	1.2
CCCCC1(COC(=O)CCC(=O)O)C(=O)N(c2ccccc2)N(c2ccccc2)C1=O [Suxibuzone] (20 µM)	1.04
CN(C)CCOC(c1ccc(Cl)cc1)c1ccccn1 (stereo unspecified) [Carbinoxamine maleate salt] (20 µM)	1.01
COC(=O)[C@H]1[C@H]2C[C@@H]3c4[nH]c5cc(OC)ccc5c4CCN3C[C@H]2C[C@@H](OC(=O)c2cc(OC)c(OC)c(OC)c2)[C@@H]1OC [Reserpine] (20 µM)	0.987
COc1cccc2c1C(=O)c1c(O)c3c(c(O)c1C2=O)C[C@@](O)(C(=O)CO)C[C@@H]3O[C@H]1C[C@H](N)[C@H](O)[C@H](C)O1 [Doxorubicin hydrochloride] (20 µM)	1.02
COc1cccc(N(C)C(=S)Oc2ccc3c(c2)CCCC3)n1 [Liranaftate] (20 µM)	0.972
CN(Cc1cc(Br)cc(Br)c1N)C1CCCCC1 [Bromhexine hydrochloride] (20 µM)	0.985

###

Test system: Ruminococcus gnavus DSM 108212
Assay Method Text: fold change of Tryptamine concentration vs plate DMSO controls (fold change (ratio)); higher = more amine produced, active = hit call of the paper (significant change in both replicates, either direction)
Cond: incubation time: 27 h, anaerobic, 37 °C
Where a name gives a salt, the structure may show the parent alone.
Reported Metric: fold change of Tryptamine concentration

Compound	Reported Metric	Result Value
Cc1ccc(NC(=O)c2ccc(CN3CCN(C)CC3)cc2)cc1Nc1nccc(-c2cccnc2)n1 [Imatinib] (20 µM)	fold change of Tryptamine concentration	1.07
COc1ccc2[nH]c([S+]([O-])Cc3ncc(C)c(OC)c3C)nc2c1 (stereo not drawn) [Omeprazole] (20 µM)	fold change of Tryptamine concentration	1.01
CCc1ccc(C(=O)C(C)CN2CCCCC2)cc1 (stereo not drawn) [Eperisone Hydrochloride] (20 µM)	fold change of Tryptamine concentration	0.954
O=C(O)Cc1ccccc1Oc1ccc(Cl)cc1Cl [Fenclofenac] (20 µM)	fold change of Tryptamine concentration	1.02
CCC(=O)O[C@@H](O[P@](=O)(CCCCc1ccccc1)CC(=O)N1C[C@H](C2CCCCC2)C[C@H]1C(=O)O)C(C)C [Fosinopril] (20 µM)	fold change of Tryptamine concentration	1.05
C[C@@H](O)[C@H]1C(=O)N2C(C(=O)O)=C(S[C@@H]3CN[C@H](C(=O)N(C)C)C3)[C@H](C)[C@H]12 [Meropenem] (20 µM)	fold change of Tryptamine concentration	0.0446
CC(=O)N(CC(C)C(=O)O)c1c(I)cc(I)c(N)c1I (stereo not drawn) [Iocetamic acid] (20 µM)	fold change of Tryptamine concentration	0.971
CC1CC(OC(=O)C(O)c2ccccc2)CC(C)(C)C1 (stereo not drawn) [Cyclandelate] (20 µM)	fold change of Tryptamine concentration	1.03
